Biological target: T1, muCD98hc ECD Avi-His (mouse, UniProt P10852 100-526)
T1 construct: biotinylated on the Avi tag where captured on streptavidin; also called Mouse CD98-AVI-His; Mouse CD98hc-AVI-His
T1 sequence: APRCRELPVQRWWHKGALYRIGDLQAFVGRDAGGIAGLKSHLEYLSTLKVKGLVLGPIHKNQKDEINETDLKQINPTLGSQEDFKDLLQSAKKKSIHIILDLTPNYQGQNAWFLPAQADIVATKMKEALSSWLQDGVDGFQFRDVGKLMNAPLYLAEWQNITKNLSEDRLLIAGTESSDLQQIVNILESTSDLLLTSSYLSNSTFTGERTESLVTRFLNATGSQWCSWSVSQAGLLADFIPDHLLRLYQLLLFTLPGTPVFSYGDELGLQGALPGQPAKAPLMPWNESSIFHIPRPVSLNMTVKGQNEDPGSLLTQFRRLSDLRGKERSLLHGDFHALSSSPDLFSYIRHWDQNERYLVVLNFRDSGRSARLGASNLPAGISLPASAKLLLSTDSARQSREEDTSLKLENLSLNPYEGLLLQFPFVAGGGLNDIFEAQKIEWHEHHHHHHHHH
Test: ELISA, hybridoma supernatant
assay-metric: OD450
Please give only the number in your answer, with no unit.

See these solved cases before continuing.
CD98HC.04.010 (antibody, V domains shown, hybridoma IgG) VH: QVQLQQSGAELMKPGASVKISCKATGYTFSTYWIEWVKQRPGHGLEWIGEILPGSGTTTYNEKFKGKATFTADTSSNTAYMQLSSLTSEDSAVYYCARRTVYYRYEGIDYWGQGTTLTVSS VL: QIVLTQSPAIMSASPGEKVTITCSASSSVSYMFWFQQRPGTSPKLWIYTTSNLASGVPARFSGSGSGTSYSLTISRMEAEDAATYYCQQKNNYPFTFGSGTKLEIK: 0.0907
CD98HC.04.012 (antibody, V domains shown, hybridoma IgG) VH: QVQLQQSGADLVRPGDSVKISCKGSGYTFTDNTLHWVKQSHAKSLEWIGVISPYYGDASYNQKFKGKATMTVDKSSSTAYMELARLTSEDSAIYYCARVGGRLRLGYYFDHWGQGTTLTVSS VL: NIMMTQSPSSLAVSAGEKVTMNCKSSQSVLSSSNQKNYLAWYQQKPGQSPKLLIYWASTRESGVPARFTGSGSGTDFSLTITSVQAEDLAVYYCLQYLSSYTFGGGTKLEIK: 0.0786

# OD450 lookup, item CD98HC.04.009 (antibody, V domains shown, hybridoma IgG) VH: QVQLKESGPGLVAPSQSLSITCTVSGFSLTSYGVHWVRQPPGKGLEWLGVIWAGGSTYYNSALMSRLSISKDNAKSQVLLKMSSLQTDDTAMYYCARDNYGGVYLDVWGAGTTVTVSS VL: ENVLTQSPASMSASPGEKVTMTCRASSSVSSSYLHWYQQKSGASPKLWIYSTSNLASGVPARFSGSGSGTSYSLTISSVEAEDAATYYCQQYSGYPLTFGSGTKLEIK
0.0688

Hello, the source for this data is patent US20250270341A1, in case you need it.
